Value source: ChEMBL document CHEMBL1126019

Species: Mus musculus
Assay: Minimum effect dose required to reduce the number of colony forming units in per gram kidney of mice after being challenged, by tail vein injection, with 5 X l0e4 cells of Candida albicans (MY 1055)
Format: functional
READOUT_LABEL: MED99

INSERT INTO assay_data (molecule, experimental_result) VALUES
  ('CCC(C)CC(C)CCCCCCCCC(=O)N[C@H]1C[C@@H](O)[C@@H](O)NC(=O)[C@@H]2[C@@H](O)CCN2C(=O)[C@H]([C@@H](O)CC(N)=O)NC(=O)[C@H]([C@H](O)[C@@H](O)c2ccc(OC(=O)N(C)CC(=O)O)cc2)NC(=O)[C@@H]2C[C@@H](O)CN2C(=O)[C@H]([C@@H](C)O)NC1=O (stereo partly drawn)', '> 6 mg/kg'),
  ('CCC(C)CC(C)CCCCCCCCC(=O)N[C@H]1C[C@@H](O)[C@@H](O)NC(=O)[C@@H]2[C@@H](O)CCN2C(=O)[C@H]([C@@H](O)CC(N)=O)NC(=O)[C@H]([C@H](O)[C@@H](O)c2ccc(OC(=O)NCC(=O)O)cc2)NC(=O)[C@@H]2C[C@@H](O)CN2C(=O)[C@H]([C@@H](C)O)NC1=O (stereo partly drawn)', '> 6 mg/kg');

Attention now shifts to the item below.
Quick one: MED99 for CCC(C)CC(C)CCCCCCCCC(=O)N[C@H]1C[C@@H](O)[C@@H](O)NC(=O)[C@@H]2[C@@H](O)CCN2C(=O)[C@H]([C@@H](O)CC(N)=O)NC(=O)[C@H]([C@H](O)[C@@H](O)c2ccc(OC(=O)NCCC(=O)O)cc2)NC(=O)[C@@H]2C[C@@H](O)CN2C(=O)[C@H]([C@@H](C)O)NC1=O (stereo partly drawn) ?
> 6 mg/kg
